These measurements were taken from PubChem BioAssay (NCI).

system: SK-MEL-28 melanoma; experiment: NCI-60 one-dose screen, 48 h; details: 10 µM
The panel holds about 83,000 compounds, 20% with a hit somewhere; the sample as a whole holds those more often. Active and inactive are the calls of the source. Rule for the calls: active = growth percent below 10; inactive = the rest.
Outcome codes: active, inactive

molecule="COc1cccc(C2=NN3C(C2)c2ccccc2OC3c2ccc(/C=C3\\SC(=O)NC3=O)cc2)c1 (stereo not given)" targetortestsystem="SK-MEL-28 melanoma" class=inactive
molecule="COc1cc(C(C)n2cc(-c3ccccc3)nn2)ccc1OC1CCCCC1 (stereo not given)" targetortestsystem="SK-MEL-28 melanoma" class=inactive
molecule=COc1ccc(OC)c(/C=C/C(=O)c2c(C)nc3ccccc3c2/C=C/c2ccccc2)c1 targetortestsystem="SK-MEL-28 melanoma" class=inactive
molecule=O=C(/C=C/c1ccc(C(F)(F)F)cc1)c1ccc(Nc2nc(NCCO)nc(N3CCOCC3)n2)cc1 targetortestsystem="SK-MEL-28 melanoma" class=inactive
molecule=CCCCc1ccc(NS(=O)(=O)c2cc3c4c(c2)CCN4C(=O)CC3)cc1 targetortestsystem="SK-MEL-28 melanoma" class=inactive
molecule=CN(C)c1ccc(/C=C/c2ccnc3c(O)cccc23)cc1 targetortestsystem="SK-MEL-28 melanoma" class=inactive
molecule="CN1C(=O)N(C)C2C1NN=c1s/c(=C\\c3c[nH]c4ccccc34)c(=O)n12 (stereo not given)" targetortestsystem="SK-MEL-28 melanoma" class=inactive
molecule=CC(=O)Nc1nc2c(s1)CCc1c-2cn(S(=O)(=O)c2ccccc2)c1-c1ccccc1 targetortestsystem="SK-MEL-28 melanoma" class=inactive
molecule=CN1CCN(Cc2ccc(NC(=O)c3[nH]ncc3Nc3cc(OC4CCCC4)ncn3)cc2)CC1 targetortestsystem="SK-MEL-28 melanoma" class=inactive
molecule=O=[N+]([O-])c1cc2c(ccc3occc32)o1 targetortestsystem="SK-MEL-28 melanoma" class=active
molecule="CC1=CCC(OC(=O)C(C)(C)CCC(O)(C(=O)OC2(C(C)C)CCC3(C)OC3C2)C(C)C)(C(C)C)CC1 (stereo not given)" targetortestsystem="SK-MEL-28 melanoma" class=active
molecule=O=C(COc1cc(O)c2c(=O)cc(-c3ccccc3)oc2c1)Nc1ccccc1 targetortestsystem="SK-MEL-28 melanoma" class=inactive
molecule=O=C(Nc1ccc(F)cc1F)c1cc(I)ccc1O targetortestsystem="SK-MEL-28 melanoma" class=inactive
molecule=COc1cc(-c2c3c(c(Br)n2Cc2ccccc2)-c2nc(N)sc2CC3)cc(OC)c1OC targetortestsystem="SK-MEL-28 melanoma" class=inactive
molecule="O=C(CN1C=NC2C(N3CCOCC3)=NC=NC21)c1cccc2ccccc12 (stereo not given)" targetortestsystem="SK-MEL-28 melanoma" class=inactive
molecule="Cc1ccc(NCCNCC(O)CO)c2c(=O)c3ccccc3sc12 (stereo not given)" targetortestsystem="SK-MEL-28 melanoma" class=active
molecule=CCOc1cccc(/C=N\Nc2nc(=O)cc(C(=O)OC)s2)c1O targetortestsystem="SK-MEL-28 melanoma" class=inactive
molecule=COc1ccc2[nH]c(O)c(N=NC(=O)c3oc4ccccc4c3C)c2c1 targetortestsystem="SK-MEL-28 melanoma" class=inactive
molecule=O=C1c2cc(Cl)ccc2Oc2cc([N+](=O)[O-])ccc2N1c1ccc(F)cc1F targetortestsystem="SK-MEL-28 melanoma" class=inactive
molecule=O=C(NCCCN1CCC(N2CCCCC2)CC1)C1=Cc2cc(Br)ccc2OC1 targetortestsystem="SK-MEL-28 melanoma" class=inactive
molecule=COc1ccc(/C=C2\N=C(c3ccccc3)N(c3ccc(-c4nc5ccc(C)cc5s4)cc3)C2=O)cc1 targetortestsystem="SK-MEL-28 melanoma" class=inactive
molecule="CCN1C(=O)N(CC)C2C1NN=c1s/c(=C3\\C(=O)N(CC(C)(C)C)c4ccccc43)c(=O)n12 (stereo not given)" targetortestsystem="SK-MEL-28 melanoma" class=inactive
molecule=COc1ccc(Cn2c(Br)c3c(c2Br)-c2nc(N)sc2CC3)cc1 targetortestsystem="SK-MEL-28 melanoma" class=inactive
molecule=COc1cc2nc(-c3cccc4cccnc34)nc(NC3CCN(Cc4ccccc4)CC3)c2cc1OC targetortestsystem="SK-MEL-28 melanoma" class=active
molecule=CCCN1CCN(c2ccc3nc(-c4ccc5nc(-c6cc(OC)ccc6OC)[nH]c5c4)[nH]c3c2)CC1 targetortestsystem="SK-MEL-28 melanoma" class=inactive
molecule=COc1ccc(-c2c(-c3ccc(OC)c(O)c3)cnc3ncnn23)cc1 targetortestsystem="SK-MEL-28 melanoma" class=inactive
molecule=CC(=O)O[C@@H]1/C=C/C(=O)N[C@@H](C)CCC/C=C/[C@@H]2CCC[C@H]21 targetortestsystem="SK-MEL-28 melanoma" class=inactive
molecule=COc1ccc(/C=C/C(=O)c2c(C)nc3ccccc3c2/C=C/c2ccccc2)c(OC)c1 targetortestsystem="SK-MEL-28 melanoma" class=inactive
molecule=Cc1cccc(NC(=O)c2sc3nc4c(cc3c2N)CCCC4)c1C targetortestsystem="SK-MEL-28 melanoma" class=inactive
molecule=O=c1nc2sc3nc4ccccc4cc3cc-2s1 targetortestsystem="SK-MEL-28 melanoma" class=inactive

----------
System: TK-10 renal
Assay: NCI-60 one-dose screen, 48 h (100 = growth as untreated, 0 = no growth, -100 = all killed)
Conditions: 10 µM unless noted
Protocol: Growth inhibition of the TK-10 human tumor cell line is measured as a screen for anti-cancer activity. Cells are grown in 96 well plates and exposed to the test compound for 48 hours. Compounds are tested at a single concentration, which is 10^-5 M for most compounds. The reported endpoint is percent growth (GI% or GIPRCNT), where numbers from 0 - 100% represent growth inhibition, and numbers from -100% - 0 represent cell death. For example, a value of 40 represents 60% growth inhibition. […]
The panel holds about 83,000 compounds, 20% with a hit somewhere; the sample as a whole holds those more often.
measureName: growth (%)

compound=Cn1nc(C(F)(F)F)c(-c2ccc(Cl)c(C(F)(F)F)c2)c1-c1ccc(OCc2ccc(Cl)cc2)cc1O valueobserved=0.361
compound=CCOC(=O)C1=CN(C)C=C(C(=O)OCC)C1c1cc(Br)c(OCC)c(OC)c1 valueobserved=43
compound="CN1C(=O)N(C)C2Nn3c(s/c(=C4\\C(=O)N(CCc5ccccc5)c5ccccc54)c3=O)=NC21 (centres undefined)" valueobserved=70.5
compound=COc1ccc(/C(C#N)=C/c2nc3c(N4CCOCC4)nc(Cl)nc3n2C)cc1OC valueobserved=-21.1

----------
tested on: HS 578T breast; test: NCI-60 one-dose screen, 48 h; details: 10 µM unless noted
Compounds without any hit were thinned out: in the full panel of roughly 83,000, 20% have a hit. Calls of active or inactive are those of the source. How the source made its calls: active means growth percent below 10; inactive means the rest.
Outcomes: y (active), n (inactive)

compound=COC(=O)c1c2c(c(C)[n+]([O-])c1C)C(=O)C=C(NCc1ccc(F)c(F)c1)C2=O class=y
compound=COc1cc([C@@H]2NC(=O)NC(C)=C2C(=O)Nc2nc(-c3ccc(Cl)cc3)cs2)ccc1O class=n
compound="C=C(C)CCC(C)N1CCC(N2CCC(C(=O)NCCc3ccccc3)CC2)CC1 (stereo not given)" class=n
compound=Nc1ccc(-n2c(=O)oc3ccc(Cl)cc3c2=O)c(Cl)c1 class=y
compound=CC(C)C[C@H](C(=O)N[C@H](C(N)=O)C(C)C)N1CC=CCN(OCc2ccccc2)S1(=O)=O class=n
compound=Cc1ccc(Cn2c(N3CCC(C(=O)NCc4cccs4)CC3)nc3ccccc32)cc1 class=n
compound=COc1cc(/C=C2\CN(S(=O)(=O)c3ccccc3)C/C(=C\c3cc(CN4CCCC4)c(O)c(OC)c3)C2=O)cc(CN2CCCC2)c1O class=n
compound="N#Cc1c(N)nc2c(c1N)C(c1ccc(F)cc1)c1ccc(N)cc1O2 (stereo not given)" class=n
compound=Oc1ccc(-c2nc(-c3ccc4oc5ccc(-c6[nH]c(-c7ccc(O)cc7)nc6-c6ccccc6)cc5c4c3)c(-c3ccccc3)[nH]2)cc1 class=n
compound=N#C/C(=C\c1c(-c2ccccc2)[nH]c2ccccc12)C(=O)c1ccccc1 class=n

----------
test system: SR leukemia; assay: NCI-60 one-dose screen, 48 h (100 = growth as untreated, 0 = no growth, -100 = all killed); details: 10 µM unless noted
The panel holds about 83,000 compounds, 20% with a hit somewhere; the sample as a whole holds those more often.
measureName: growth (%)

compound=Cc1cc2c(c(C)c1Cl)C(=O)/C(=C/c1ccco1)O2 valueobserved=69.7
compound=O=Cc1c(OCc2cnnn2CC(=O)Nc2ccc(Br)cc2)ccc2ccccc12 valueobserved=95.9
compound=COc1ccc(Br)c(/C=C2\SC(=Nc3ccc(O)cc3)NC2=O)c1 valueobserved=110
compound=COC(=O)c1c2c(c(C)[n+]([O-])c1C)C(=O)C=C(NCc1ccccc1)C2=O valueobserved=4.44
compound=CCOc1cccc(/C=N\Nc2nc(=O)cc(C(=O)OC)s2)c1O valueobserved=50.7
compound=CCOc1ccc(-c2nonc2NC(=O)c2cccc(C)c2)cc1OCC valueobserved=-34.7
compound=COc1cc(/C(C#N)=C/c2nc3c(N4CCOCC4)nc(Cl)nc3n2C)cc(OC)c1OC valueobserved=27.9
compound=COc1ccc(Nc2cc(C)nc(NCc3ccccc3)n2)cc1 valueobserved=0.982
compound=O=C(CSc1ccc2nnc(-c3cccc(F)c3)n2n1)Nc1ccc2c(c1)OCO2 valueobserved=56.3
compound=CCN1CCN(C(=S)SCC(=O)Nc2nc3ccc(C)cc3s2)CC1 valueobserved=103
compound=O=C(CN1C(=O)/C(=C\c2ccc(Cl)cc2)SC1=S)Nc1ncc(Cc2ccc(Cl)cc2)s1 valueobserved=116
compound=O=Nc1c(O)ccc2ccccc12.O=Nc1c(O)ccc2ccccc12.O=Nc1c([O-])ccc2ccccc12.[Fe+3] valueobserved=105
compound="CC(C)CCNCC(O)Cn1c2ccccc2c2ccccc21 (stereo not drawn)" valueobserved=3.35
compound=O=C(/C=C/c1ccccn1)c1ccc(OCc2nnc(-c3ccc(Cl)cc3)o2)cc1 valueobserved=-11.7
compound="O=C(CN1C=NC2C(N3CCOCC3)=NC=NC21)c1cccc2ccccc12 (stereo not drawn)" valueobserved=85.1
compound=C[C@@H](C(=O)NCCCC#Cc1cnc(Nc2ccc(C#N)cc2)nc1NC1CC1)N(C)C(=O)/C=C/CN(C)C valueobserved=9.79
compound=CCOC(=O)c1cc2c(n1Cc1cc(OC)c(OC)c(OC)c1)-c1oncc1CCC2 valueobserved=2.12
compound=CCOC(=O)c1cc2c(n1Cc1cc(OC)cc(OC)c1)-c1oncc1CCC2 valueobserved=9.52
compound=N[C@@H](CC/[N+]([O-])=N/O)C(=O)O valueobserved=126
compound="CN1C(=O)N(C)C2C1NN=c1s/c(=C\\c3ccc(Cl)cc3Cl)c(=O)n12 (stereo not drawn)" valueobserved=4.89
compound=O=C(/C=C/c1ccccc1)c1ccc(Nc2nc(NCCO)nc(Nc3ccc(Cl)cc3)n2)cc1 valueobserved=23.1
compound="CCN1C(=O)N(CC)C2C1NC(=S)N2/N=C/C=C/c1ccccc1OC (stereo not drawn)" valueobserved=12
compound="Cc1ccc(C2CC(c3ccc(Nc4nc(NCCO)nc(Nc5ccc(Cl)cc5)n4)cc3)=NN2c2cc(Cl)cc(Cl)c2)cc1 (stereo not drawn)" valueobserved=107
compound=CN1CCN(Cc2ccc(NC(=O)c3[nH]ncc3Nc3cc(OC4CCCC4)ncn3)cc2)CC1 valueobserved=4.42
compound=COc1cc2nc(NC3CCC3)nc(NC3CCN(C(C)C)CC3)c2cc1OC valueobserved=2.34
compound="S=C1NC2(c3ccccc3)CCC(=S)N2c2ccccc21 (stereo not drawn)" valueobserved=92.9
compound="CCCCC(O)(c1ccc(Cl)cc1)C(CN1CCOCC1)c1ccc(Cl)cc1 (stereo not drawn)" valueobserved=5.35
compound=CCOc1c(Br)cc(C2C(C(=O)OC)=CN(C)C=C2C(=O)OC)cc1OC valueobserved=8.75
